assay: Extrapolation to humans of the PK parameter values observed in dogs; type: in vivo; conditions: human, plasma, intravenous; for a body weight of 64 kg in humans, extrapolated from dogs; read-out: Vdss
outcome-measure: Vd (L)
Respond numerically; units are L and should not be typed.

Briefly, Vd measured for `COc1ccc2[nH]c3c(c2c1)CCN=C3C` : 960
